# ASSAY PROTOCOL: Modified bidirectional permeability assay (24 h preincubation), Caco-2 cells
# APPLIED CONDITIONS: human, Caco-2, pH 7.4
REPORTED ENDPOINT: efflux ratio at 1 µM
The answer should be written as a number, with no unit following it.

Task: Query efflux ratio at 1 µM for Cc1nnc2n1-c1sc(CCC(=O)N3CCOCC3)cc1C(c1ccccc1Cl)=NC2 [Apafant, apafant]
Output: 13.8

###

# ASSAY PROTOCOL: Standard bidirectional permeability assay, Caco-2 cells
# Type: in vitro ADME
# APPLIED CONDITIONS: human, Caco-2, pH 7.4; standard assay; 10 µM in donor; read-out: Caco-2 Papp,AB
REPORTED ENDPOINT: Papp A→B at 10 µM (×10⁻⁶ cm/s)
Output spec: scalar in ×10⁻⁶ cm/s, unitless text.

Task: Supply reported Papp A→B at 10 µM belonging to this molecule: CC(C)NCC(O)COc1cccc2ccccc12 (centres unmarked) [Propranolol]
Output: 79

Task: Report measured Papp A→B at 10 µM; entry is COCCc1ccc(OCC(O)CNC(C)C)cc1 (centres unmarked) [Metoprolol]
Output: 54.3
